Let's go through some recorded Ki values for Carbonic anhydrase 9 (Homo sapiens, UniProt Q16790) together.
The response must be a number in nM with no trailing unit.

> print(dat)
                        chemical.structure                     target.or.test.system  display.unit  measurement
1  CC(C)n1cc(-c2cc(C(=O)O)[nH]n2)c2ccccc21  Carbonic anhydrase 9 (Homo sapiens, UniProt Q16790)            nM        18900
2     CCn1cc(-c2cc(C(=O)O)n(C)n2)c2ccccc21  Carbonic anhydrase 9 (Homo sapiens, UniProt Q16790)            nM         2910
3    CCn1cc(-c2cc(C(=O)OC)[nH]n2)c2ccccc21  Carbonic anhydrase 9 (Homo sapiens, UniProt Q16790)            nM          470

Note: attention shifts to another entry.
Task: Fill in: Ki of `CCn1cc(-c2cc(C(=O)OC)n(C)n2)c2ccccc21` is ___
Output: 3020

Taken from ChEMBL document CHEMBL4190360.
